Origin of the recorded values: ChEMBL document CHEMBL1155221

- assayed-system: 5-hydroxytryptamine receptor 6 (Homo sapiens)
- Sequence (P50406 whole entry): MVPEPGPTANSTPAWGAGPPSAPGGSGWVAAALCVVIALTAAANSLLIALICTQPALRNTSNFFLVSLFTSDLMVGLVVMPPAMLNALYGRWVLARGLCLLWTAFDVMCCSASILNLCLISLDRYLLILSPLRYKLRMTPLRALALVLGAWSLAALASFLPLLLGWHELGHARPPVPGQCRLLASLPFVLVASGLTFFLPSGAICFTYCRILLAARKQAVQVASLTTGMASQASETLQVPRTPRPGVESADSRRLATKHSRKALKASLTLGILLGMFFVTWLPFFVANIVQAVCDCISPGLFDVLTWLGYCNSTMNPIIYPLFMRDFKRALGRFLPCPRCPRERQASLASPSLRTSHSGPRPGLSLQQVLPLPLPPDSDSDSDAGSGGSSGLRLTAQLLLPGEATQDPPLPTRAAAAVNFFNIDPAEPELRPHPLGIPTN
- assay-text: Displacement of [3H]LSD from human cloned 5HT6 receptor expressed in human HeLa cells
- Format: cell-based
pKi: −log10 of the molar value.
measure: pKi

C/C(=N\NC(=N)N)c1cn(S(=O)(=O)c2c(Cl)nc3sccn23)c2ccccc12 ≥ 8.10
C/C(=N\NC(=N)N)c1cn(S(=O)(=O)c2ccc(N)cc2)c2ccccc12 ≥ 8.10

Continue with the next compound.
What measured pKi goes with COc1ccc(S(=O)(=O)Nc2ccc3[nH]cc(/C(C)=N/NC(=N)N)c3c2)cc1 ?
9.00

###

# Lookup of reported IC50 keyed by entry
- assayed-system: Adrenergic receptor alpha-1 (Rattus norvegicus, UniProt P15823+P23944+P43140)
- assay-text: Inhibition of rat alpha 1 adrenoceptor

# example entries with known answers
molecule	IC50
O=S(=O)(Nc1ccc2c(c1)/C(=N/NC1=NCCN1)CC2)c1c(Cl)nc2sccn12	> 1 µM
Cl.N=C(N)N/N=C1\CCc2ccc(NS(=O)(=O)c3c(Cl)nc4sccn34)cc21	> 1 µM

Next, consider the following molecule.
Form field - read-out: IC50; system: Adrenergic receptor alpha-1 (Rattus norvegicus, UniProt P15823+P23944+P43140); submitted item: CC1Cc2ccc(NS(=O)(=O)c3c(Cl)nc4sccn34)cc2/C1=N/NC(=N)N.Cl (racemic)
> 1 µM

###

- assayed-system: 5-hydroxytryptamine receptor 6 (Homo sapiens)
- assay-text: Displacement of [3H]LSD from human recombinant 5HT6 receptor expressed in HEK293 cells after 60 mins by liquid scintillation counting
- Assay type: cell-based
pKi: −log10 of the molar value.
measure: pKi

// solved cases for pKi follow
compound	pKi
CN1CCC(C2=CCc3ccc(NS(=O)(=O)c4c(Cl)nc5sccn45)cc32)C1 (stereo not given)	8.52
CC1(C)C/C(=N\NC(=N)N)c2cc(NS(=O)(=O)c3c(Cl)nc4sccn34)ccc21.Cl	8.28
CN(c1ccc2c(c1)/C(=N/NC(=N)N)CC2)S(=O)(=O)c1c(Cl)nc2sccn12.Cl	8.39

P: Cl.N=C(N)N/N=C1\CCc2cc(NS(=O)(=O)c3c(Cl)nc4sccn34)ccc21
Q: Cl.N=C(N)N/N=C1\CCc2ccc(NS(=O)(=O)c3c(Cl)nc4sccn34)cc21
R: CN1CCOc2ccc(S(=O)(=O)Nc3ccc4c(c3)/C(=N/NC(=N)N)CC4)cc21
Please list the entries, largest pKi first. Labels, requested order.
Q, P, R
(Q: 8.92, P: 8.59, R: 7.59)

1: Cl.N=C(N)N/N=C1\CCc2ccc(NS(=O)(=O)c3ccc4ccccc4c3)cc21
2: O=S(=O)(Nc1ccc2c(c1)/C(=N/NC1=NCCN1)CC2)c1c(Cl)nc2sccn12
Of the pair 1 and 2 , name the member with the lesser recorded pKi. Please identify the chosen entry by its label.
1
(1: 7.21, 2: 8.66)

I: CN1CCOc2ccc(S(=O)(=O)Nc3ccc4c(c3)/C(=N\NC3=NCCN3)CC4)cc21
II: CC1Cc2ccc(NS(=O)(=O)c3c(Cl)nc4sccn34)cc2/C1=N/NC(=N)N.Cl (racemic)
Problem: Given the entries I and II , determine which has the lower reported pKi. Your answer should be the label of the entry you select.
I
(I: 7.15, II: 8.80)
